- assay-comment: Phase I study Part A, single IV dose, plasma pharmacokinetics
- Type: in vivo, healthy male and female subjects
- protocol-conditions: both sexes, human, plasma, iv, 600 mg, Treatment 600 mg NXL-104; Geo mean
metric-name: half-life (h)

{"compound-structure-string": "NC(=O)[C@@H]1CC[C@@H]2CN1C(=O)N2OS(=O)(=O)[O-].[Na+]", "unit-symbol": "h", "numeric-readout": 1.64}

---

- assay-comment: Phase I study Part A, single IV dose, plasma pharmacokinetics
- Format: in vivo, healthy male and female subjects
- protocol-conditions: both sexes, human, plasma, iv; Treatment 600 mg NXL-104; Median; read-out: Tmax
metric-name: Tmax (h)

{"compound-structure-string": "NC(=O)[C@@H]1CC[C@@H]2CN1C(=O)N2OS(=O)(=O)[O-].[Na+]", "unit-symbol": "h", "numeric-readout": 1}

FYI, the data here is from patent US8835455B2.
